Can you tell me IC50 for the items I'm about to list?
target: Interleukin-1 receptor-associated kinase 4 (Homo sapiens, UniProt Q9NWZ3); test: biochemical

Use these answered entries as a reference point.
MOLECULE	STUDY_TARGET	ASSAY_RESULT
COc1ccc(-c2cc(NC(=O)c3cnn4cccnc34)n(-c3ccc(C)cc3)n2)cn1	Interleukin-1 receptor-associated kinase 4 (Homo sapiens, UniProt Q9NWZ3)	0.31 µM
Cc1ccc(-n2nc(N3CCN(C)CC3)cc2NC(=O)c2cnn3cccnc23)nc1	Interleukin-1 receptor-associated kinase 4 (Homo sapiens, UniProt Q9NWZ3)	0.005 µM
Cc1ccc(-n2nc(C3CCN(C(N)=O)CC3)cc2NC(=O)c2cnn3cccnc23)cc1	Interleukin-1 receptor-associated kinase 4 (Homo sapiens, UniProt Q9NWZ3)	0.22 µM

Return reported IC50 values for all items listed beneath this line.
1. COc1ccc(-c2cc(NC(=O)c3cnn4cccnc34)n(-c3ccc(C)cc3)n2)cc1
2. COc1ccc(-n2nc(C3CCN(S(C)(=O)=O)CC3)cc2NC(=O)c2cnn3cccnc23)cc1

["0.17 µM", "0.071 µM"]

Dear reader, for each entry below, please note its IC50.
1. Cc1ccc(-n2nc(C3CCN(C(C)C)CC3)cc2NC(=O)c2cnn3cccnc23)cc1
2. CC(=O)N1CCC(c2cc(NC(=O)c3cnn4cccnc34)n(-c3ccc(C)cc3)n2)CC1
3. Cc1ccc(-n2nc(C3CCCCC3)cc2NC(=O)c2cnn3cccnc23)cc1
4. Cc1ccc(-n2nc(C3CCN(S(C)(=O)=O)CC3)cc2NC(=O)c2cnn3cccnc23)nc1
5. Cc1ccc(-n2nc(C3CCN(C)CC3)cc2NC(=O)c2cnn3cccnc23)cc1
6. Cc1ccc(-n2nc(-c3ccccc3)cc2NC(=O)c2cnn3cccnc23)cc1
7. Cc1ccc(-n2nc(C3CCN(S(C)(=O)=O)CC3)cc2NC(=O)c2cnn3cccnc23)c(F)c1
8. CS(=O)(=O)N1CCC(c2cc(NC(=O)c3cnn4cccnc34)n(-c3ccc(C4CC4)cc3)n2)CC1

1. 0.047 µM
2. 0.18 µM
3. 2.4 µM
4. 0.027 µM
5. 0.15 µM
6. 0.69 µM
7. 0.04 µM
8. 0.059 µM

Could you tell me IC50 for each of these compounds? They are listed below.
1. Cc1ccc(-n2nc(C3CC3)cc2NC(=O)c2cnn3cccnc23)cc1
2. COc1ccc(-c2cc(NC(=O)c3cnn4cccnc34)n(-c3ccc(C)cc3)n2)cc1OC
3. Cc1ccc(-n2nc(-c3cccnc3)cc2NC(=O)c2cnn3cccnc23)cc1
4. Cc1cccc(-n2nc(C3CCN(S(C)(=O)=O)CC3)cc2NC(=O)c2cnn3cccnc23)c1
5. COc1cc(-c2cc(NC(=O)c3cnn4cccnc34)n(-c3ccc(C)cc3)n2)ccn1

1: 0.37 µM; 2: 0.044 µM; 3: 0.099 µM; 4: 2.1 µM; 5: 0.39 µM

What measured IC50 goes with CS(=O)(=O)N1CCC(c2cc(NC(=O)c3cnn4cccnc34)n(-c3ccc(C4CC4)cc3F)n2)CC1 ? 0.085 µM

----------
test: AUC (0 to 24 hrs) in mouse at 5 mg/kg, po; format: ADME, organism-based; parameters: dose 5 mg/kg, time < 24 hr, route oral; details: in vivo
RECORDED_ENDPOINT: AUC(0-t) at 24 h (µM·h)
Give bare numbers, in µM·h.

So what does the record say about AUC(0-t) at 24 h for Cc1ccc(-n2nc(N3CCN(C)CC3)cc2NC(=O)c2cnn3cccnc23)nc1 ? 2.3

----------
Biological target: UniProt Q9NWZ3
Sequence (Q9NWZ3 whole entry): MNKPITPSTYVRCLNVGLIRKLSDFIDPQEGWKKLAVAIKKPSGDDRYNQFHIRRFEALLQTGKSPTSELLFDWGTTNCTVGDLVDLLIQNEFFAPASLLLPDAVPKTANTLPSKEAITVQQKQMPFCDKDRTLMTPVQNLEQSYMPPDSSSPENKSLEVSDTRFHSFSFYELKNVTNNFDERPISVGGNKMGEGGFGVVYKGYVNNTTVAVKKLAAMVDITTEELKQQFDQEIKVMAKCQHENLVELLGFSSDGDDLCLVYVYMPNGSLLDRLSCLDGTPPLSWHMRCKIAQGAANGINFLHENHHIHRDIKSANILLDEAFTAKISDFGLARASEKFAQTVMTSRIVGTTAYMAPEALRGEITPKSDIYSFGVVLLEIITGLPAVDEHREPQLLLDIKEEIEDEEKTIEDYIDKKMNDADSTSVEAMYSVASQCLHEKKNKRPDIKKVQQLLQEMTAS
Experiment: biochemical
RECORDED_ENDPOINT: pIC50
Numbers only, as −log10 of the molar value.

MOLECULE	STUDY_TARGET	pIC50
Cc1ccc(-n2nc(N3CCN(S(C)(=O)=O)CC3)cc2NC(=O)c2cnn3cccnc23)nc1	UniProt Q9NWZ3	8.70
Cc1cnc(-n2nc(C3CCN(S(C)(=O)=O)CC3)cc2NC(=O)c2cnn3cccnc23)nc1	UniProt Q9NWZ3	6.74
CS(=O)(=O)N1CCC(c2cc(NC(=O)c3cnn4cccnc34)n(-c3ccc(C4CC4)cn3)n2)CC1	UniProt Q9NWZ3	7.70
Cc1ccc(-n2nc(C3CCNCC3)cc2NC(=O)c2cnn3cccnc23)cc1	UniProt Q9NWZ3	7.10
CS(=O)(=O)N1CCC(c2cc(NC(=O)c3cnn4cccnc34)n(-c3ccccc3)n2)CC1	UniProt Q9NWZ3	6.55

Dear colleague, could you send me pIC50 for each of the items below? Thanks.
1. Cc1ccc(-n2nc(C3CCOCC3)cc2NC(=O)c2cnn3cccnc23)cc1
2. Cc1ccc(-n2nc(C3CCN(S(C)(=O)=O)CC3)cc2NC(=O)c2cnn3cccnc23)cc1
3. Cc1ccc(-n2nc(C3CCN(C(C)C)CC3)cc2NC(=O)c2cnn3cccnc23)nc1
4. Cc1ccc(-n2nc(-c3ccncc3)cc2NC(=O)c2cnn3cccnc23)cc1
5. CC(C)N1CCC(c2cc(NC(=O)c3cnn4cccnc34)n(-c3ccc(C4CC4)cc3F)n2)CC1

6.39
7.17
8.15
7.21
7.89
